Test: NCI Yeast Anticancer Drug Screen. Data for the bub3 strain (AID 167)
Conditions: S. cerevisiae bub3 mutant strain, at 5.0 µM (retest, dose inferred, filed as 0.5)
About 79,000 compounds went through this panel and 15% of them were active in at least one assay; those are over-represented in the sample as a whole. Calls of active or inactive are those of the source. Rule as the data show it: active = growth inhibition above about 70%; inactive = the rest.
Thanks in advance; please answer with one of these: T = active, F = inactive

-- ask Kindly provide the recorded test outcome for the following compound: `NC(=S)N/N=C/c1ccc(Cl)s1`
-- reply F

-- ask Kindly provide the recorded test outcome for the following compound: `CC1=NC2=NC(CCCC(=O)OCc3ccc(Cl)c(Cl)c3)=NC3=CC=CC(=N1)N32`
-- reply F

-- ask Kindly provide the recorded test outcome for the following compound: `Cc1c(C)n(-c2ccccc2)c2nc(S(C)(=O)=O)nc(S(C)(=O)=O)c12`
-- reply F

-- ask Kindly provide the recorded test outcome for the following compound: COC1/C=C/OC2(C)Oc3c(C)c(O)c4c(c3C2=O)C(=O)C=C(NC(=O)/C(C)=C\C=C\C(C)C(OC=O)C(C)C(O)C(C)C(OC(C)=O)C1C)C4=O (centres undefined)
-- reply F

-- ask Kindly provide the recorded test outcome for the following compound: `N#Cc1c(SCc2ccc(Cl)cc2)nsc1Nc1ccc(Cl)cc1`
-- reply T

-- ask Kindly provide the recorded test outcome for the following compound: `CC(C)OC(=O)c1ccc(NCc2cc(O)ccc2O)cc1Cl`
-- reply F

-- ask Kindly provide the recorded test outcome for the following compound: `CCS(=O)(=O)/C=C/c1ccc2ccccc2n1`
-- reply F

-- ask Kindly provide the recorded test outcome for the following compound: O=C(O)C(CS)Nc1c2ccccc2nc2ccccc12 (centres undefined)
-- reply F

-- ask Kindly provide the recorded test outcome for the following compound: `CN(Cc1ccccc1)c1nc(=[N+](C)C)ss1`
-- reply F

-- ask Kindly provide the recorded test outcome for the following compound: `COc1ccccc1/C=C\C(=O)c1ccccc1`
-- reply F

-- ask Kindly provide the recorded test outcome for the following compound: `N=C(N)c1ccc(N=Nc2cc(/C=C/c3ccccc3)ccc2O)cc1`
-- reply F

-- ask Kindly provide the recorded test outcome for the following compound: `Cc1ccc(S(=O)(=O)Nc2ccc3c(c2)Cc2cc([N+](=O)[O-])ccc2-3)cc1`
-- reply F

-- ask Kindly provide the recorded test outcome for the following compound: `S=C(NCCNC(=S)[S][Sn]([c]1ccccc1)([c]1ccccc1)[c]1ccccc1)[S][Sn]([c]1ccccc1)([c]1ccccc1)[c]1ccccc1`
-- reply T

-- ask Kindly provide the recorded test outcome for the following compound: `CN(C)CCC(/C=C/c1ccccc1)=N\Nc1ccc(Cl)c(Cl)c1`
-- reply T

-- ask Kindly provide the recorded test outcome for the following compound: CCCN(CCC)CC(O)c1cc(-c2ccccc2)nc2c(Cl)cc(Cl)cc12 (centres undefined)
-- reply F

-- ask Kindly provide the recorded test outcome for the following compound: `CCCN(CCC)C(=S)N/N=C(/C)c1ccccc1O`
-- reply F

-- ask Kindly provide the recorded test outcome for the following compound: `O/N=C/c1cc(Cl)cc(Cl)c1O`
-- reply T

-- ask Kindly provide the recorded test outcome for the following compound: `CCOc1ccc(-c2nc3ccc(-c4nc5ccc(N6CCN(C)CC6)cc5[nH]4)cc3[nH]2)cc1`
-- reply F

-- ask Kindly provide the recorded test outcome for the following compound: `O=C(c1ccc([N+](=O)[O-])cc1)N1CCCSC1=S`
-- reply F

----------
Test: NCI Yeast Anticancer Drug Screen. Data for the rad50 strain (AID 155);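 also: 0% = growth of vehicle-only cultures of the same strain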
Details: S. cerevisiae rad50 strain growth inhibition; at 5.0 µM (retest, dose inferred, filed as 0.5); hits give high values
The panel holds about 79,000 compounds, 15% with a hit somewhere; the sample as a whole holds those more often.
Provide the recorded growth inhibition for the entries that follow.
Give just the number in %; leave the unit off.

-- ask Give its growth inhibition value. Item: `COc1cc(N=Nc2cccc(S(N)(=O)=O)c2)c2ccccc2c1N`
-- reply -6

-- ask Give its growth inhibition value. Item: `O=C(O/N=C1/CCC/C1=C\c1ccccc1)c1ccccc1`
-- reply 33

-- ask Give its growth inhibition value. Item: `CCN(CC)CCOc1ccc(-c2nc3cc(Cl)ccc3s2)cc1`
-- reply 29

-- ask Give its growth inhibition value. Item: `CC(C)Cc1ncc(CC(C)C)n(O)c1=O`
-- reply 34

-- ask Give its growth inhibition value. Item: CC(C(O)c1ccccc1)[N+](=O)[O-] (configuration not stated)
-- reply 67

-- ask Give its growth inhibition value. Item: `CC(C)OC(=O)c1cc([N+](=O)[O-])cc([N+](=O)[O-])c1Sc1ncnc2nc[nH]c12`
-- reply 49

-- ask Give its growth inhibition value. Item: `CCCc1cc(=O)oc2c3c(c4c(c12)OC(C)(C)C=C4)O[C@@H](C)[C@H](C)[C@H]3O`
-- reply -1

-- ask Give its growth inhibition value. Item: `CCCOc1ccc(-c2nc(-c3ccc(N=Cc4ccc(N(CCOS(C)(=O)=O)CCOS(C)(=O)=O)cc4C)cc3)cs2)cc1`
-- reply 13

-- ask Give its growth inhibition value. Item: CCCCCCCC1SCC(=O)N1c1nncs1 (configuration not stated)
-- reply -11

-- ask Give its growth inhibition value. Item: `Cn1c2ccccc2c2c(C#N)c(C#N)c([N+](=O)[O-])cc21`
-- reply 30

-- ask Give its growth inhibition value. Item: `CCCCN(C)C(=S)N/N=C(\C)c1ccccn1`
-- reply 56

-- ask Give its growth inhibition value. Item: `Cc1ccc2c(ccc(CC(=S)[S-])[n+]2C)c1`
-- reply 10

-- ask Give its growth inhibition value. Item: `C=CCNC(=O)NC1=CSC2=NC(=O)C3(NN12)c1ccccc1-c1ccccc13`
-- reply -1

-- ask Give its growth inhibition value. Item: `CCC[CH2][Sn]([CH2]CCC)([O]C(=O)c1cc(F)cc(F)c1)[O]C(=O)c1cc(F)cc(F)c1`
-- reply 54

-- ask Give its growth inhibition value. Item: `O=Cc1cc(S(=O)(=O)c2ccc(O)c(C=O)c2)ccc1O`
-- reply 12

-- ask Give its growth inhibition value. Item: `Cc1nc(Nc2c(C)cccc2C)c2c(C)c[nH]c2n1`
-- reply -2

-- ask Give its growth inhibition value. Item: `CCCN(CCC)C(=S)N/N=C(/C)c1ccccc1O`
-- reply -8

----------
Experiment: NCI Yeast Anticancer Drug Screen. Data for the bub3 strain (AID 167)
Conditions: S. cerevisiae bub3 mutant strain, at 50.0 µM, hits give high values
About 79,000 compounds went through this panel and 15% of them were active in at least one assay; those are over-represented in the sample as a whole.
Provide the recorded growth inhibition for the entries that follow.
Give just the number in %; leave the unit off.

-- ask Give its growth inhibition value. Item: `COc1ccc2nc3cc(Cl)ccc3c(NCCNCCCNC(=O)c3cc(-c4ccccc4)nc4ccccc34)c2c1`
-- reply 94.2

-- ask Give its growth inhibition value. Item: `O=[N+]([O-])c1ccc(-c2nc3ccc(F)cc3[nH]2)o1`
-- reply 99.7

-- ask Give its growth inhibition value. Item: `CCCCOc1c(OCCCC)c(=O)c1=O`
-- reply -26.6

-- ask Give its growth inhibition value. Item: `OCCCNc1nc2ccc(Cl)cc2c2ccccc12`
-- reply 23.8

-- ask Give its growth inhibition value. Item: `CN=C(N)N/N=C(\C)c1ccc2c(c1)Cc1cc(/C(C)=N/NC(N)=NC)ccc1-2`
-- reply 86.1

----------
Assay: NCI Yeast Anticancer Drug Screen. Data for the bub3 strain (AID 167)
Conditions: S. cerevisiae bub3 mutant strain, at 50.0 µM (retest, dose inferred, filed as 5.0), hits give high values
The panel holds about 79,000 compounds, 15% with a hit somewhere; the sample as a whole holds those more often.
endpoint-name: growth inhibition (%)
Give just the number in %; leave the unit off.

-- ask Give its growth inhibition value. Item: `COc1ccc(-c2c(C#N)c(-c3ccc(C)cc3)n(NS(=O)(=O)c3ccc(C)cc3)c(=O)c2C#N)cc1`
-- reply 65

-- ask Give its growth inhibition value. Item: `Oc1c(I)cc(Cl)c2cccnc12`
-- reply 96

-- ask Give its growth inhibition value. Item: `N#C/C(=C\c1c(Cl)cccc1Cl)c1nc2ccccc2[nH]1`
-- reply 98

-- ask Give its growth inhibition value. Item: `CCOc1ccc2c(c1)nc1ccccc1[n+]2CC`
-- reply 36

-- ask Give its growth inhibition value. Item: `CCN(CC)CCNc1c(C)ccc2cccnc12`
-- reply 2

-- ask Give its growth inhibition value. Item: `COc1ccc(-c2cscc2N)cc1`
-- reply 91

-- ask Give its growth inhibition value. Item: `O=C1c2ccccc2C(=O)c2sc(Nc3cccc(Cl)c3)nc21`
-- reply 97

-- ask Give its growth inhibition value. Item: `CCCCCCCC/C=C\CCCCCCCCN1CCOCC1`
-- reply 19

-- ask Give its growth inhibition value. Item: CC(C)(C)N/N=C(\C(=O)NC1=C(Cl)C(=O)c2ccccc2C1=O)C1C=CCS1(=O)=O (stereo not given)
-- reply 92

-- ask Give its growth inhibition value. Item: CC(CO)(Nc1ccc([N+](=O)[O-])cc1[N+](=O)[O-])C(=O)O (stereo not given)
-- reply 99

-- ask Give its growth inhibition value. Item: `Cc1cc2nc(CS)[nH]c2cc1C`
-- reply 85

-- ask Give its growth inhibition value. Item: `COc1ccc(NC(=O)CCC(=O)CC(=O)c2ccncc2)cc1`
-- reply 1

-- ask Give its growth inhibition value. Item: COc1cc(OC)cc(C2OC3=C(Nc4ccc([N+](=O)[O-])cc4N3)C2=O)c1 (stereo not given)
-- reply 16

-- ask Give its growth inhibition value. Item: `CC(=O)n1nc2c(c1CC(C)C)C(=O)C(Nc1ccccc1)=CC2=O`
-- reply 99

-- ask Give its growth inhibition value. Item: `COc1ccc(CN(C)c2c(C)ccc3ccccc23)cc1`
-- reply 98
